Data provenance is PubChem BioAssay (NCATS).

Experiment: Primary qHTS for inhibitors of nuclear receptor binding SET domain protein 2 (NSD2) in an RCH-ACV wild type WT cells (2C) (AID 1645877); also: nearly all actives have a fitted effect of over 70% in size
Conditions: RCH-ACV (leukaemia line) NSD2 WT (2C) viability, CellTiter-Glo, 72 h; series mostly up to 44.9 µM
Inconclusive results are not listed. Calls of active or inactive are those of the source. Calls follow the shape of the dose curve; as a rule, active = well fitted inhibition curve with a large enough effect; inconclusive = small, poorly fitted or top-dose-only effect; inactive = no such curve, though single readings can be large or run the other way.
Your answer must be one of the following: active, inactive

Call for entry Cc1ccc([C@@H]2O[C@H](CO)[C@@H](O)[C@H](O)[C@H]2O)cc1Cc1ccc(-c2ccc(F)cc2)s1 :
active

Call for entry COc1ncc(Nc2ncc(C(C)N3CCN(S(C)(=O)=O)CC3)cc2-c2nc(C)nc(N)n2)cc1F (centres undefined) :
inactive

Call for entry O=C(c1ccc(Nc2nc(C3CC3)cn3c(-c4cn[nH]c4)cnc23)c(F)c1)N1CCOCC1 :
active

Call for entry Nc1cc(C(F)(F)F)c(-c2nc(N3CCOCC3)nc(N3CCOCC3)n2)cn1 :
active

Call for entry COc1ccc2c(c1)[C@]1(C[C@H]1c1ccc3c(/C=C/c4ccc(CN5C[C@@H](C)O[C@@H](C)C5)cc4)n[nH]c3c1)C(=O)N2 :
active

Call for entry N#Cc1cc2cc(CN3CCC(Nc4ncnc5sc(CC(F)(F)F)cc45)CC3)c(O)cc2n1Cc1cn[nH]c1 :
active

Call for entry O=C(O)CNC(=O)c1ncc(-c2cccc(Cl)c2)cc1O :
inactive

Call for entry C=CC(=O)N[C@H]1CN(c2nc(Nc3cn(C)nc3OC)c3ncn(C)c3n2)C[C@@H]1F :
active

Call for entry [N-]=[N+]=N[C@]1(CO)O[C@@H](n2ccc(N)nc2=O)[C@@H](O)[C@@H]1O :
active
